# target.or.test.system: Lysosomal alpha-glucosidase (Homo sapiens)
# assay.name: qHTS Assay for Inhibitors and Activators of Human alpha-Glucosidase Cleavage of Glycogen; also: potency is read from the fitted curve at half-maximal effect;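 also: the screen sought inhibitors and activators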
# condition.description: recombinant GAA, glycogen substrate, Amplex Red glucose oxidase fluorescence; series mostly up to 76.4 µM
Among all 300,000 compounds or so, about 1,200 (0.4%) were called active. Another 3% or so got no clear call; they are omitted. The entries come from a sample that favours actives as a whole.
property.name: Potency

In the examples that follow, each entry is paired with its recorded Potency.
smiles.str: Cn1cc(/C=C/c2nc3ccccc3c(=O)n2-c2ccccc2)c2ccccc21
experimental.result: inactive
//
smiles.str: Cc1ccc(NC(=O)N(Cc2ccc3c(c2)OCO3)C2CCN(Cc3ccccc3)CC2)cc1F
experimental.result: inactive
//
smiles.str: Oc1cc2c(cc1CN1CCN(c3ccccc3)CC1)OCO2
experimental.result: 2 µM (active)
//
smiles.str: Fc1ccc(N2CCN(Cc3ccc4c(c3)OCO4)CC2)cc1
experimental.result: inactive

# next compound below
stdin: Form field: reported Potency of CC(C)c1ccc(O)c(CN2CCN(c3ccccc3)CC2)c1
stdout: inactive
